Biological target: Prothrombin (Homo sapiens, UniProt P00734)
pKi: −log10 of the molar value.
reportedEndpoint: pKi

Observe how each entry below is paired with its result.
substanceSmiles	pKi
COc1ccc(OCC(=O)O)c(Cc2cc(O)c(Cc3cc(OCC(=O)O)c(Cc4cc(O)c(Cc5cc(OCC(=O)O)c(Cc6cc(O)c(C)cc6OC)cc5OC)cc4OC)cc3OC)cc2OC)c1	< 4.82
COCCOCOc1cc(Cc2cc(OC)c(Cc3cc(OC)c(Cc4cc(OC)c(Cc5cc(OC)c(Cc6cc(OC)ccc6OCC(=O)O)cc5OCOCCOC)cc4OCC(=O)O)cc3OCOCCOC)cc2OCC(=O)O)c(OC)cc1C	6.62
COc1cc(CO)c(OCc2ccccc2)cc1Cc1cc(OC)c(Cc2cc(OC)c(Cc3cc(OC)c(Cc4cc(OC)c(Cc5cc(O)ccc5OCC(=O)O)cc4OCc4ccccc4)cc3OCC(=O)O)cc2OCc2ccccc2)cc1OCC(=O)O	< 4.82

Please report the recorded pKi for `O=C(O)COc1cc(Cc2cc(OCc3ccccc3)c(Cc3cc(OCc4ccccc4)c(Cc4cc(O)ccc4OCC(=O)O)cc3OCC(=O)O)cc2OCC(=O)O)c(OCc2ccccc2)cc1CO` .
< 4.82

----------
Provide the recorded Ki for the entries that follow.
Molecular target: Neutrophil elastase (Homo sapiens, UniProt P08246)
Sequence (P08246 whole entry): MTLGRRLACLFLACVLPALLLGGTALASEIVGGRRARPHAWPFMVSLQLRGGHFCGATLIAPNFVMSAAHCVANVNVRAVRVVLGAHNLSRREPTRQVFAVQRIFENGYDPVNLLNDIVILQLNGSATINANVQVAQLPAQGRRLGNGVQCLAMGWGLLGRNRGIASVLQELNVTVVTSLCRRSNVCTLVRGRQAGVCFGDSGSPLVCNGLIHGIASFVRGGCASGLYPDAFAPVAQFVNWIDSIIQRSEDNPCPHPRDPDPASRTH
Test: Inhibitory activity against human leukocyte elastase
Give bare numbers, in nM.

substanceSmiles	valueUnits	valueMeasured
COc1ccc(OCC(=O)O)c(Cc2cc(OCCCCCc3ccccc3)c(Cc3cc(OCC(=O)O)c(Cc4cc(OCCCCCc5ccccc5)c(Cc5cc(OCC(=O)O)c(Cc6cc(OCCCCCc7ccccc7)c(C)cc6OC)cc5OC)cc4OC)cc3OC)cc2OC)c1	nM	17

Could you report Ki for every entry in the following list?
1. COCCOCOc1cc(Cc2cc(OC)c(Cc3cc(OC)c(Cc4cc(OC)c(Cc5cc(OC)c(Cc6cc(OC)ccc6OCC(=O)O)cc5OCOCCOC)cc4OCC(=O)O)cc3OCOCCOC)cc2OCC(=O)O)c(OC)cc1C
2. COc1cc(CO)c(OCc2ccccc2)cc1Cc1cc(OC)c(Cc2cc(OC)c(Cc3cc(OC)c(Cc4cc(OC)c(Cc5cc(O)ccc5OCC(=O)O)cc4OCc4ccccc4)cc3OCC(=O)O)cc2OCc2ccccc2)cc1OCC(=O)O
3. O=C(O)COc1cc(Cc2cc(OCc3ccccc3)c(Cc3cc(OCc4ccccc4)c(Cc4cc(OCc5ccccc5)c(Cc5cc(OCc6ccccc6)c(Cc6cc(O)ccc6OCC(=O)O)cc5OCC(=O)O)cc4OCC(=O)O)cc3OCC(=O)O)cc2OCC(=O)O)c(OCc2ccccc2)cc1CO
4. COc1ccc(OCC(=O)O)c(Cc2cc(OCCCc3ccccc3)c(Cc3cc(OCC(=O)O)c(Cc4cc(OCCCc5ccccc5)c(Cc5cc(OCC(=O)O)c(Cc6cc(OCCCc7ccccc7)c(C)cc6OC)cc5OC)cc4OC)cc3OC)cc2OC)c1
5. CC(C)(C)c1cc2c(OCC(=O)O)c(c1)Cc1cc(C(C)(C)C)cc(c1OCC(=O)O)Cc1cc(C(C)(C)C)cc(c1OCC(=O)O)Cc1cc(C(C)(C)C)cc(c1OCC(=O)O)Cc1cc(C(C)(C)C)cc(c1OCC(=O)O)Cc1cc(C(C)(C)C)cc(c1OCC(=O)O)Cc1cc(C(C)(C)C)cc(c1OCC(=O)O)Cc1cc(C(C)(C)C)cc(c1OCC(=O)O)C2
6. O=C(O)COc1cc(Cc2cc(OCc3ccccc3)c(Cc3cc(OCc4ccccc4)c(Cc4cc(OCc5ccccc5)c(Cc5cc(O)ccc5OCC(=O)O)cc4OCC(=O)O)cc3OCC(=O)O)cc2OCC(=O)O)c(OCc2ccccc2)cc1CO

1: 1000; 2: 200; 3: 120; 4: 100; 5: 1300; 6: 130
